Assay: Lactate dehydrogenase (LDH) release assay
Type: cell-based
Details: LDH: Cytotoxicity assay EC50
Protocol: HCT116 cells were stably transfected with a p53 responsive β-lactamase reporter and expanded in McCoy’s 5 A Medium with 10% fetal bovine serum (FBS), Blasticidin, and Penicillin/Streptomycin and then transferred to 1.5 ml freezing vials and stored under liquid nitrogen in growth media containing 5% DMSO. […] Lactate dehydrogenase release was detected using the CytoTox-ONE Homogenous Membrane Integrity Assay Kit (Promega), as per the manufacturer’s instructions. […]
Positions of bridges follow the written chain, without caps; N, C: chain ends. Non-standard residues stand in square brackets, D forms with d. Residues, ends and D or L forms follow the SMILES beside them. 2Nal = N[C@@H](Cc1ccc2ccccc2c1)C(=O)O; R8 = C=CCCCCCC[C@@](C)(N)C(=O)O; S5 = C=CCCC[C@](C)(N)C(=O)O
Measurement Kind: EC50 (µM)
Report the figure in µM without appending any unit label.

Task item: Which measured EC50 value corresponds to CC(=O)N[C@H](C(=O)N[C@@H](CO)C(=O)N[C@@H](Cc1ccc2ccccc2c1)C(=O)N[C@]1(C)CCCCCCC=CCCC[C@@](C)(C(=O)N[C@@H](CO)C(=O)N[C@@H](C)C(=O)N[C@@H](C)C(=O)N[C@@H](CCC(=O)O)C(N)=O)NC(=O)[C@H](CC(C)C)NC(=O)[C@H](CC(C)C)NC(=O)[C@H](C)NC(=O)[C@H](Cc2c[nH]c3ccccc23)NC(=O)[C@H](Cc2ccc(O)cc2)NC(=O)[C@H](CCC(=O)O)NC1=O)[C@@H](C)O [MP-144] (Ac-TS[2Nal][R8]EYWALL[S5]SAAE-NH2; staple 4-11) ?
Reply: 15.6

----------
The molecules listed here are annotated with their Nanoclick permeability assay % Effect.
Tested on: cells transiently transfected with the NanoLuc-HaloTag vector
Assay: Nanoclick permeability assay
Conditions: 4Hr
Positions of bridges follow the written chain, without caps; N, C: chain ends. Non-standard residues stand in square brackets, D forms with d. Residues, ends and D or L forms follow the SMILES beside them. dPhe(4-CF3) = N[C@H](Cc1ccc(C(F)(F)F)cc1)C(=O)O; dTrp(6-F) = N[C@H](Cc1c[nH]c2cc(F)ccc12)C(=O)O; Lys(N3) = [N-]=[N+]=NCCCC[C@H](N)C(=O)O; R8 = C=CCCCCCC[C@@](C)(N)C(=O)O; R5 = C=CCCC[C@@](C)(N)C(=O)O; S5 = C=CCCC[C@](C)(N)C(=O)O; Aib = CC(C)(N)C(=O)O; βAla = NCCC(=O)O
Number first, unit second.

Molecule | Nanoclick permeability assay % Effect
CC(=O)N[C@@H](C(=O)N[C@H](C)C(=O)N[C@H](Cc1c[nH]c2cc(F)ccc12)C(=O)N[C@H](Cc1ccc(O)cc1)C(=O)N[C@H](C)C(=O)N[C@]1(C)CCCC=CCCC[C@](C)(C(=O)N[C@H](CC(C)C)C(=O)N[C@H](CO)C(N)=O)NC(=O)[C@@H](CCC(N)=O)NC(=O)[C@@H](CCC(=O)O)NC(=O)[C@@H](Cc2ccc(C(F)(F)F)cc2)NC1=O)[C@H](C)O [MP-797] (Ac-[dT][dA][dTrp(6-F)][dY][dA][R5][dPhe(4-CF3)][dE][dQ][R5][dL][dS]-NH2; staple 6-10) | 69.79%

Task item: Which measured Nanoclick permeability assay % Effect value corresponds to CC(=O)N[C@@H](CCCCN=[N+]=[N-])C(=O)NCCC(=O)N[C@@H](CC(C)C)C(=O)N[C@H](C(=O)N[C@@H](CO)C(=O)N[C@]1(C)CCCCCCC=CCCC[C@@](C)(C(=O)N[C@@H](CO)C(=O)N[C@@H](C)C(=O)N[C@@H](C)C(N)=O)NC(=O)[C@H](CO)NC(=O)[C@H](CCC(N)=O)NC(=O)[C@H](C)NC(=O)[C@H](CO)NC(=O)[C@H](Cc2ccc(O)cc2)NC(=O)[C@H](CCC(=O)O)NC1=O)[C@@H](C)O [MP-3352] (Ac-[Lys(N3)][βAla]LTS[R8]EYSAQS[S5]SAA-NH2; staple 6-13) ?
Reply: 36.66%

Task item: Which measured Nanoclick permeability assay % Effect value corresponds to "CC(=O)N[C@H](C(=O)N[C@@H](CO)C(=O)N[C@@H](Cc1ccccc1)C(=O)N[C@]1(C)CCCCCCC=CCCC[C@@](C)(C(N)=O)NC(=O)[C@H](CC(C)C)NC(=O)[C@H](CC(C)C)NC(=O)[C@H](C)NC(=O)[C@H](Cc2c[nH]c3ccccc23)NC(=O)[C@H](Cc2ccc(O)cc2)NC(=O)[C@H](CCC(=O)O)NC1=O)[C@@H](C)O" ?
Reply: 42.09%

Task item: Which measured Nanoclick permeability assay % Effect value corresponds to "CC(=O)N[C@@H](CCCCN=[N+]=[N-])C(=O)NCCC(=O)N[C@@H](CC(C)C)C(=O)N[C@H](C(=O)N[C@@H](Cc1ccccc1)C(=O)N[C@]1(C)CCCCCCC=CCCC[C@@](C)(C(=O)N2CCC[C@@H]2C(=O)N2CCC[C@@H]2C(=O)N2CCC[C@@H]2C(=O)N2CCC[C@@H]2C(=O)N2CCC[C@@H]2C(=O)N2CCC[C@@H]2C(N)=O)NC(=O)[C@H](CC2CCC2)NC(=O)[C@H](CCC(N)=O)NC(=O)[C@H](C)NC(=O)[C@H](Cc2c[nH]c3ccccc23)NC(=O)[C@H](Cc2ccc(O)cc2)NC(=O)[C@H](CCC(=O)O)NC1=O)[C@@H](C)O" ?
Reply: 114.3%

Task item: Which measured Nanoclick permeability assay % Effect value corresponds to "CC(=O)N[C@@H](CCCCN=[N+]=[N-])C(=O)NCCC(=O)N[C@@H](CC(C)C)C(=O)N[C@H](C(=O)N[C@@H](Cc1ccccc1)C(=O)N[C@]1(C)CCCCCCC=CCCC[C@@](C)(C(=O)N[C@@H](CO)C(=O)N[C@@H](C)C(=O)N[C@@H](C)C(N)=O)NC(=O)[C@H](CC2CCC2)NC(=O)[C@H](CCC(N)=O)NC(=O)[C@H](C)NC(=O)[C@H](Cc2c[nH]c3ccccc23)NC(=O)[C@H](Cc2ccc(O)cc2)NC(=O)[C@@H]2CCCN2C1=O)[C@@H](C)O" ?
Reply: 129.4%

Task item: Which measured Nanoclick permeability assay % Effect value corresponds to "CC(=O)N[C@@H](CCCCN)C(=O)NCCCCCC(=O)N[C@H](C(=O)N[C@@H](CO)C(=O)N[C@@H](Cc1ccccc1)C(=O)N[C@]1(C)CCCCCCC=CCCC[C@@](C)(C(=O)N[C@@H](CCC(=O)O)C(=O)N[C@@H](CC(N)=O)C(=O)N[C@@H](Cc2ccccc2)C(N)=O)NC(=O)[C@H](CC(C)C)NC(=O)[C@H](CC(C)C)NC(=O)[C@H](C)NC(=O)[C@H](Cc2c[nH]c3ccccc23)NC(=O)[C@H](Cc2ccc(O)cc2)NC(=O)[C@H](CCC(=O)O)NC1=O)[C@@H](C)O" ?
Reply: 69.87%

Task item: Which measured Nanoclick permeability assay % Effect value corresponds to "CC(=O)N[C@@H](CC(C)C)C(=O)N[C@H](C(=O)N[C@@H](Cc1ccccc1)C(=O)N[C@]1(C)CCCCCCC=CCCC[C@@](C)(C(=O)N[C@@H](CO)C(=O)N[C@@H](C)C(=O)N[C@@H](C)C(N)=O)NC(=O)[C@@H](CC2CCC2)NC(=O)[C@H](CC(C)C)NC(=O)[C@H](CCC(N)=O)NC(=O)[C@H](Cc2c[nH]c3ccccc23)NC(=O)[C@H](Cc2ccc(O)cc2)NC(=O)[C@H](CCC(=O)O)NC1=O)[C@@H](C)O" ?
Reply: 22.02%

Task item: Which measured Nanoclick permeability assay % Effect value corresponds to "CC(=O)N[C@@H](CCCCN)C(=O)NCCCCCC(=O)N[C@H](C(=O)N[C@@H](CO)C(=O)N[C@@H](Cc1ccccc1)C(=O)N[C@]1(C)CCCCCCC=CCCC[C@@](C)(C(N)=O)NC(=O)[C@H](CC(C)C)NC(=O)[C@H](CC(C)C)NC(=O)[C@H](C)NC(=O)[C@H](Cc2c[nH]c3ccccc23)NC(=O)[C@H](Cc2ccc(O)cc2)NC(=O)[C@H](CCC(=O)O)NC1=O)[C@@H](C)O" ?
Reply: 9.756%

Task item: Which measured Nanoclick permeability assay % Effect value corresponds to CC(C)C[C@@H](NC(=O)[C@@]1(C)CCCC=CCCC[C@@](C)(NC(=O)[C@@H](C)NC(=O)[C@@H](Cc2ccc(O)cc2)NC(=O)[C@@H](Cc2c[nH]c3cc(F)ccc23)NC(=O)[C@@H](C)NC(=O)[C@H](N)[C@H](C)O)C(=O)N[C@H](Cc2ccc(C(F)(F)F)cc2)C(=O)N[C@H](CCC(=O)O)C(=O)N[C@H](CCC(N)=O)C(=O)N1)C(=O)N[C@H](CO)C(N)=O [MP-795] (H-[dT][dA][dTrp(6-F)][dY][dA][R5][dPhe(4-CF3)][dE][dQ][R5][dL][dS]-NH2; staple 6-10) ?
Reply: 23.68%

Task item: Which measured Nanoclick permeability assay % Effect value corresponds to CC(=O)N[C@@H](CC(C)C)C(=O)N[C@H](C(=O)N[C@@H](Cc1ccccc1)C(=O)NC(C)(C)C(=O)N[C@@H](CCC(=O)O)C(=O)N[C@@H](Cc1ccc(O)cc1)C(=O)N[C@@H](Cc1c[nH]c2ccccc12)C(=O)N[C@@H](C)C(=O)N[C@@H](CCC(N)=O)C(=O)N[C@@H](CC(C)C)C(=O)NC(C)(C)C(=O)N[C@@H](CO)C(N)=O)[C@@H](C)O [MP-790] (Ac-LTF[Aib]EYWAQL[Aib]S-NH2) ?
Reply: -7.015%

Measured values drawn from paper PMC10786919 for this set.
